This collection of values is drawn from patent US5441883A.

Assignment: determine reported EC50 for the given compounds.
- measurement-target: A3 adenosine receptor (Rattus norvegicus)
- Sequence (P28647 1-320): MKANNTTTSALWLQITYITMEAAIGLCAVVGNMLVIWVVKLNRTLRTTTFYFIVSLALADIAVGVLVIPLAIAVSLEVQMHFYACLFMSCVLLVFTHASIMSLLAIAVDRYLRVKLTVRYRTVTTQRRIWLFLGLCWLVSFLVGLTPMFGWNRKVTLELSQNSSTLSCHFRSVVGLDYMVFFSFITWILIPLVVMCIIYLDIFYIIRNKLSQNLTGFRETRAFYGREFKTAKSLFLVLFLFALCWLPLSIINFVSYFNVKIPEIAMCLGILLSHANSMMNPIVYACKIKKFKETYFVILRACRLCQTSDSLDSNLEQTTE
- method-summary: cell-based
- Assay type: cell-based
- cond: Table II
Could you write the number and then its unit?

Provide reported EC50 for each item, in the same order as listed.
1. C[C@H](Cc1ccccc1)Nc1ncnc2c1ncn2[C@@H]1O[C@H](CO)[C@@H](O)[C@H]1O [R-PIA]
2. Nc1ncnc2c1ncn2[C@@H]1O[C@H](CO)[C@@H](O)[C@H]1O [Adenosine, adenosine]

Result:
0.018 µM
6.5 µM
